Entry source: patent US5783597A

- SYSTEM: Human Prostaglandin H2 Synthase Typ II (Cox-2) (Homo sapiens, UniProt P35354)
- Construct: endogenous in cells; host or cells: ECV-304 cells treated with PMA and ionomycin for 16 hours
- Sequence (P35354 18-604): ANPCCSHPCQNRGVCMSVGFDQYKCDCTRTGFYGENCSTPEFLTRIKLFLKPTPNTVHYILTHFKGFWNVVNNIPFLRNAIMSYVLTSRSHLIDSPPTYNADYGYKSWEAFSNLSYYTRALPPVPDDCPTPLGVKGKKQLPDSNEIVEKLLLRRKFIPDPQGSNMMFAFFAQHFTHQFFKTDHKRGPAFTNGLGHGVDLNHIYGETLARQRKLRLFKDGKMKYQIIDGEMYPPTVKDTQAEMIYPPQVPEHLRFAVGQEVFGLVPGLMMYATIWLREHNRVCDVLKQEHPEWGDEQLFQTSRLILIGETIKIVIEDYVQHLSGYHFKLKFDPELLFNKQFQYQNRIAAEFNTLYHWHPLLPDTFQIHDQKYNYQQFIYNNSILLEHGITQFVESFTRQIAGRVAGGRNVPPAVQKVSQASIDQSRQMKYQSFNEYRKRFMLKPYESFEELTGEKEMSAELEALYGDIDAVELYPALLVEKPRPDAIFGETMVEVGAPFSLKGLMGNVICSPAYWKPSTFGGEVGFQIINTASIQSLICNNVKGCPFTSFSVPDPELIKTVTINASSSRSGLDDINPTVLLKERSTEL
- ASSAY EXPLANATION: Human Prostaglandin H2 Synthase Typ II (Cox-2) Whole Cell Assay, ECV-304 cells (Procedure III)
- Type: cell-based
- CONDITION CONTEXT: @ 10 μM, ECV-304 whole cells; read-out: Procedure III (COX-2) Wh Cell, percent inhibition of PGE2 produced
# inhibition at 10 µM values compiled below

# COMPOUND, SYSTEM, inhibition at 10 µM
rows = [
    ("CS(=O)(=O)Nc1ccc(Oc2ccc(S(C)(=O)=O)cc2)s1", "Human Prostaglandin H2 Synthase Typ II (Cox-2) (Homo sapiens, UniProt P35354)", "0%"),
    ("CSc1ccc(Oc2ccc(NS(C)(=O)=O)s2)cc1", "Human Prostaglandin H2 Synthase Typ II (Cox-2) (Homo sapiens, UniProt P35354)", "39%"),
    ("O=S(=O)(Nc1ccc(Oc2ccccc2)s1)c1ccccc1", "Human Prostaglandin H2 Synthase Typ II (Cox-2) (Homo sapiens, UniProt P35354)", "44%"),
    ("CC(C)S(=O)(=O)Nc1ccc(Oc2ccccc2)s1", "Human Prostaglandin H2 Synthase Typ II (Cox-2) (Homo sapiens, UniProt P35354)", "16%"),
    ("CS(=O)(=O)Nc1ccc(-c2ccc(F)cc2)s1", "Human Prostaglandin H2 Synthase Typ II (Cox-2) (Homo sapiens, UniProt P35354)", "3%"),
    ("CS(=O)(=O)Nc1ccc(Cc2ccccc2)s1 [Example 31, N-(5-Benzylthien-2-yl)methanesulfonamide]", "Human Prostaglandin H2 Synthase Typ II (Cox-2) (Homo sapiens, UniProt P35354)", "45%"),
    ("CS(=O)(=O)Nc1ccc(-c2ccccc2)s1", "Human Prostaglandin H2 Synthase Typ II (Cox-2) (Homo sapiens, UniProt P35354)", "31%"),
    ("COc1ccc(Oc2ccc(NS(C)(=O)=O)s2)cc1", "Human Prostaglandin H2 Synthase Typ II (Cox-2) (Homo sapiens, UniProt P35354)", "0%"),
    ("CS(=O)(=O)Nc1ccc(Oc2cc(C(F)(F)F)ccc2Cl)s1", "Human Prostaglandin H2 Synthase Typ II (Cox-2) (Homo sapiens, UniProt P35354)", "29%"),
    ("CCCCCCCCS(=O)(=O)Nc1ccc(Oc2ccccc2)s1", "Human Prostaglandin H2 Synthase Typ II (Cox-2) (Homo sapiens, UniProt P35354)", "8%"),
    ("CC(C)c1cccc(Oc2ccc(NS(C)(=O)=O)s2)c1", "Human Prostaglandin H2 Synthase Typ II (Cox-2) (Homo sapiens, UniProt P35354)", "36%"),
    ("CS(=O)(=O)Nc1ccc(Oc2cccc(F)c2)s1", "Human Prostaglandin H2 Synthase Typ II (Cox-2) (Homo sapiens, UniProt P35354)", "13%"),
    ("Cc1cccc(Oc2ccc(NS(C)(=O)=O)s2)c1C", "Human Prostaglandin H2 Synthase Typ II (Cox-2) (Homo sapiens, UniProt P35354)", "54%"),
    ("CS(=O)(=O)Nc1ccc(Sc2ccccc2)s1", "Human Prostaglandin H2 Synthase Typ II (Cox-2) (Homo sapiens, UniProt P35354)", "33%"),
    ("CS(=O)(=O)Nc1ccc(Oc2cc(C(F)(F)F)cc(C(F)(F)F)c2)s1", "Human Prostaglandin H2 Synthase Typ II (Cox-2) (Homo sapiens, UniProt P35354)", "8%"),
]
